# key: entry, value: GI50
- Test system: MDA-N
- experiment notes: NCI tumour cell line growth inhibition, 48 h
Active and inactive are the calls of the source. Cut-off read from the data, not from the text of the source: active = GI50 up to about 1.1 µM and inactive = higher.

A selection of reference data follows.
* Cc1cn([C@@H]2C[C@H](CO)[C@@H]2O)c(=O)[nH]c1=O | > 100 µM (inactive)
* Cc1cc(C)nc(NS(=O)(=O)c2ccc(Nc3c4ccccc4nc4ccc(C(=O)Nc5ccc(S(=O)(=O)N=C(N)N)cc5)cc34)cc2)n1 | > 100 µM (inactive)
* CC1=NN(c2cccc(S(=O)(=O)O)c2)C2(C1)SCC(=O)N2c1nc2ccccc2s1 (stereo not given) | > 100 µM (inactive)
* COc1ccc(/C=N/n2c(Cc3ccc(Cl)cc3)n[nH]c2=O)cc1 | > 100 µM (inactive)
* OC1C=C2C3CN(Cc4cc5c(cc43)OCO5)[C@H]2C[C@@H]1O (stereo not given in full) | 3.89 µM (inactive)

From here, focus on the item given below.
**Q:** What GI50 value was documented for this compound, COc1ccc(C2SC(C)C(=O)N2c2nc(-c3nc(-c4ccc(Cl)cc4)cs3)cs2)cc1 (stereo not given) ?
**A:** > 100 µM (inactive)

====

Parameter 'readout' = GI50; parameter 'system' = HCT-15.

A selection of reference data follows.
- COC(=O)[C@@H]1C2OC(C)(C)OC2CN1C(=O)OCc1ccccc1 (stereo partly drawn): > 100 µM
- COC(=O)C1(N2CCOCC2)CCC([C@@H](c2ccccc2)C(C)[N+](=O)[O-])C1 (stereo partly drawn): 66.8 µM
- Cc1cc(S(=O)(=O)Nc2nnc3cnc4ccccc4n23)c(S)cc1Cl: > 100 µM
- Cc1cc(C)cc(Nc2nnc3n2S(=O)(=O)c2cc(C#N)c(Cl)cc2S3)c1: 2.52 µM

**Q:** What GI50 value was documented for this compound, Cc1ccc(-c2cc(-c3ccccc3)nc(N)n2)c(O)c1 ?
**A:** > 22.9 µM

**Q:** Same lookup for OC1C=C2C3CN(Cc4cc5c(cc43)OCO5)[C@H]2C[C@@H]1O (stereo partly drawn) , please.
**A:** 4.33 µM

**Q:** Same lookup for O=C(O)[C@H](CCC[C@H]1C(=O)O[C@H](c2ccccc2)[C@H](c2ccccc2)N1C(=O)OCc1ccccc1)N[C@@H](c1ccccc1)[C@H](O)c1ccccc1 , please.
**A:** > 100 µM

**Q:** Same lookup for CN(CCNC(=O)c1nn(-c2ccccc2)c2c1Cc1ccccc1-2)CCNC(=O)c1nn(-c2ccccc2)c2c1Cc1ccccc1-2 , please.
**A:** 1.88 µM

**Q:** Same lookup for COc1cc2c(cc1OC)[C@@](C)(C(O)C(O)C(C)(C)O)NCC2 (stereo partly drawn) , please.
**A:** > 100 µM

**Q:** Same lookup for CSc1cc(Br)ccc1-n1c(C(=O)c2ccccc2)c(SC)n(-c2ccccc2)c1=O , please.
**A:** 23 µM

**Q:** Same lookup for COc1ccc(-c2oc3cc(O)cc(O)c3c(=O)c2OC)cc1 , please.
**A:** 23.4 µM

**Q:** Same lookup for CC(=O)OCC1OC(n2c(S)c(C#N)c(-c3ccccc3)c(C#N)c2=O)C(OC(C)=O)C(OC(C)=O)C1OC(C)=O (stereo not drawn) , please.
**A:** > 100 µM

**Q:** Same lookup for CC(=O)O[C@H]1C(=O)[C@@]2(C)[C@H]([C@H](OC(=O)C3CCCCC3)[C@]3(O)C[C@H](OC(=O)[C@H](O)[C@@H](NC(=O)OC(C)(C)C)c4ccccc4)C(C)=C1C3(C)C)[C@]1(OC(C)=O)CO[C@@H]1C[C@@H]2O , please.
**A:** 0.268 µM

**Q:** Same lookup for CCN(C1=CC(=O)NC2CCCCN12)c1ccccc1 (stereo not drawn) , please.
**A:** > 100 µM

**Q:** Same lookup for CCc1n[nH]c(=O)n1/N=C/c1ccc(C)cc1 , please.
**A:** > 100 µM

**Q:** Same lookup for CC1(C)[C@@H](Cn2ccc(=O)[nH]c2=O)CC[C@@]1(C)CO , please.
**A:** > 100 µM

**Q:** Same lookup for COC(=O)/C=C/[C@@H]1[C@H](C)N1S(=O)(=O)c1ccc(C)cc1 (stereo partly drawn) , please.
**A:** > 100 µM

**Q:** Same lookup for O=C(O)C(=O)/C=C\c1ccc(Cl)cc1 , please.
**A:** > 100 µM

====

- System: OVCAR-8
- experiment notes: NCI tumour cell line growth inhibition, 48 h
Activity calls are given as the source filed them. Cut-off read from the data, not from the text of the source: active = GI50 up to about 1.1 µM and inactive = higher.
outcome measure: GI50

A selection of reference data follows.
• O=c1c2cc(-c3ccccc3)sc2nc2sc(-c3ccccc3)nn12 = > 100 µM (inactive)
• COc1ccc(C2C(Cl)C(=O)N2NC(=O)c2ccc(N)cc2)cc1OC (stereo not given) = 4.08 µM (inactive)
• CCOC(=O)c1ccc(/N=C/C=C(\Nc2ccc(C(=O)OCC)cc2)c2ccc3ccccc3c2)cc1 = 35.4 µM (inactive)
• CCN(CC)CCCC(C)NC(=O)c1ccc2c(c1)C(=O)c1ccccc1C2=O (stereo not given) = 22.3 µM (inactive)
• O=C(c1cccc2cc(O)ccc12)c1cn(CCN2CCOCC2)c2ccccc12 = 31.6 µM (inactive)
• Cc1ccc(C(=O)Cc2nc3ncccc3[nH]c2=O)cc1 = 23.6 µM (inactive)
• Cc1ccc(/C=C2/NC(=S)SC2=O)cc1 = 31 µM (inactive)
• COC(=O)c1ccccc1C1=C([N+](=O)[O-])C(c2ccccc2)C(C#N)=C(N)O1 (stereo not given) = 32.1 µM (inactive)
• COc1cc2c(cc1OCCCOc1cc3c(cc1OC)C(=O)N1CCC[C@H]1C(=O)N3)N=C[C@@H]1CCCN1C2=O = 23.4 µM (inactive)

From here, focus on the item given below.
**Q:** # returns recorded GI50 (system: OVCAR-8) for O=C(Nc1cccc2c1[nH]c1c(-c3ccccc3)nccc12)c1ccccc1[N+](=O)[O-]
**A:** 24.8 µM (inactive)

====

- Tested on: UACC-62
- experiment notes: NCI tumour cell line growth inhibition, 48 h
Active and inactive are the calls of the source. No stated cut-off is given here; in the data, active = GI50 up to about 1.1 µM and inactive = higher.
outcome measure: GI50

A selection of reference data follows.
* CCOC(=O)C1=C(N)N2C(=N[C@H]3CCCC[C@@H]32)N=C1 | > 100 µM (inactive)
* CCOC(=O)C1C(c2ccccc2)=C(c2ccccc2)C(c2ccccc2)=C1c1ccccc1 | 19.3 µM (inactive)
* COc1cccc2c1Cc1cc(-c3ccccc3)[n+](C)n1-2 | 15 µM (inactive)
* CC1=C(C#N)C23C(=O)c4ccccc4C(=O)C2=C(O)C=CC3(O)N1 (stereo unspecified) | 2.52 µM (inactive)
* CCC1(N=[N+]=[N-])C(=O)c2ccccc2N(c2ccccc2)C1=O (stereo unspecified) | > 100 µM (inactive)
* O=[N+]([O-])c1ccc([I+]c2ccccc2)cc1 | 2.96 µM (inactive)
* COc1ccc(C2SC(C)C(=O)N2c2nc(-c3nc(-c4ccc(Cl)cc4)cs3)cs2)cc1 (stereo unspecified) | > 100 µM (inactive)
* O=C(O)CC1OCC=C2C[N+]3([O-])CCC45c6ccccc6NC4C1C2CC53 (stereo unspecified) | > 100 µM (inactive)

**Q:** # returns recorded GI50 (system: UACC-62) for Nc1ccc2c(c1)NCCN2
**A:** 5.13 µM (inactive)

**Q:** Same lookup for OC(COC(c1ccccc1)(c1ccccc1)c1ccccc1)C(O)CC1SCCS1 (stereo unspecified) , please.
**A:** 17.1 µM (inactive)

**Q:** Same lookup for CC(=O)OCC1=C2C(OC(=O)C(C)C)CC3(COC(C)=O)OC3/C=C\C3(C)OC3C2OC1=O (stereo unspecified) , please.
**A:** > 100 µM (inactive)

**Q:** Same lookup for CCN(CC)CCC(=O)c1ccc(C)cc1 , please.
**A:** 28.4 µM (inactive)

**Q:** Same lookup for C[C@@H]1O[C@@H](O[C@H]2[C@H](Oc3cc(O)c4c(=O)cc(-c5ccc(O)cc5)oc4c3)O[C@H](CO)[C@@H](O)[C@@H]2O)[C@H](O)[C@H](O)[C@H]1O , please.
**A:** > 100 µM (inactive)

**Q:** Same lookup for COc1ccc(NC(=O)/C(Cc2cc(=O)oc3cc(O)ccc23)=N\NC(C)(C)C)c(OC)c1 , please.
**A:** > 100 µM (inactive)

**Q:** Same lookup for O=C(O)CN(c1ccccc1)S(=O)(=O)c1ccc(Cl)cc1 , please.
**A:** > 100 µM (inactive)

**Q:** Same lookup for C1=C\SS/C=C\SS/1 , please.
**A:** 52.4 µM (inactive)

**Q:** Same lookup for CCOC(=O)N[C@H]1CCc2cc(O)c(OC)c(OC)c2-c2ccc(SC)c(=O)cc21 , please.
**A:** < 0.0144 µM (active)

**Q:** Same lookup for Cc1ccc(C(=O)N(C2CCCCC2)C2CCCCC2)cc1/N=N/N(C)C , please.
**A:** 7.78 µM (inactive)
